assay: duplex formation entropy ΔS (Van't Hoff fit of HRM Tm); higher = smaller entropy loss on duplex formation; conditions: temperature for dG: 50 °C; NaCl: 500 mM (unadjusted); backbone: PS-PS (both strands fully phosphorothioate)
Provide the reported duplex formation entropy ΔS of each item.
Kindly answer with a numeric value in cal/mol/K, unit omitted.

Look up duplex formation entropy ΔS for this sequence: `CGTGCAGCACTACTTG` -179

What do you get for `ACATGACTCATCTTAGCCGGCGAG` ? -311

What do you get for `GATGCCGCAGCGACCTG` ? -202

What do you get for `GCTGTGAAACAATGTAG` ? -231

What do you get for `GAGGCAGCCGCGACCTG` ? -198

What do you get for `GAACCGTTGATGATCTC` ? -189

What do you get for `TAGACGCGGCCTCTTTCC` ? -272
